tested on: HBV viral production from HepAD38 cells; assay: Activity of test compounds on viral production from HepAD38 cells (viral load by qPCR of HBV core sequence in supernatant); type: cell-based; conditions: Hepatitis B virus, 120 h, 5 days incubation, HBV DNA in supernatant by qPCR, top concentration 10 μM, read-out: Viral Load EC50 Activity range
value kind: EC50

INSERT INTO assay_data (molecule, measured) VALUES
  ('CN1C(C(=O)Nc2ccc(F)c(Cl)c2)CC(c2ccc(-c3ccc(NS(C)(=O)=O)cc3)s2)NS1(=O)=O (racemic)', '< 1000 nM'),
  ('CN1[C@H](C(=O)Nc2ccc(F)c(Cl)c2)C[C@H](c2ccsn2)NS1(=O)=O', '< 1000 nM'),
  ('CN1[C@@H](C(=O)Nc2ccc(F)c(Cl)c2)C[C@@H](c2cc(-c3ccnn3C)cs2)NS1(=O)=O', '1000 to 5000 nM'),
  ('CN1[C@H](C(=O)Nc2ccc(F)c(Cl)c2)C[C@H](c2ncc(-c3cn[nH]c3)s2)NS1(=O)=O', '< 1000 nM'),
  ('CN1[C@H](C(=O)Nc2ccc(F)c(Cl)c2)C[C@H](c2ccc(-c3cn(C)cn3)s2)NS1(=O)=O', '< 1000 nM');

get_value(item= "CCn1cc(-c2csc([C@@H]3C[C@H](C(=O)Nc4ccc(F)c(Cl)c4)N(C)S(=O)(=O)N3)c2)cn1" , readout=EC50) returns 1000 to 5000 nM

Sure, the documented EC50 for CN1C(C(=O)Nc2ccc(C#N)cc2)CC(c2cccs2)NS1(=O)=O (stereo not shown) is > 5000 nM

---

system: HBV viral production from HepAD38 cells; assay: Activity of test compounds on viral production from HepAD38 cells (viral load by qPCR of HBV core sequence in supernatant); format: cell-based; settings: Hepatitis B virus, 120 h, 5 days incubation, HBV DNA in supernatant by qPCR, top concentration 10 μM, read-out: Viral Load EC50 Activity range
Reported EC50 values for a set of compounds

// below: answered compounds
INSERT INTO assay_data (compound, value_kind, measured) VALUES
  ('CN1C(C(=O)Nc2ccc(F)c(Cl)c2)CC(c2ccc(-c3ccc(F)cn3)s2)NS1(=O)=O (racemic)', 'EC50', '< 1 µM'),
  ('[2H]C1C([2H])(c2ccc(-c3cn(C)cn3)s2)NS(=O)(=O)N(C)C1([2H])C(=O)Nc1ccc(F)c(Cl)c1 (stereo not shown)', 'EC50', '< 1 µM'),
  ('Cc1csc([C@@H]2C[C@H](C(=O)Nc3ccc(F)c(Cl)c3)N(C)S(=O)(=O)N2)c1', 'EC50', '> 5 µM'),
  ('Cc1csc([C@H]2C[C@@H](C(=O)Nc3ccc(F)c(Cl)c3)N(C)S(=O)(=O)N2)c1', 'EC50', '< 1 µM'),
  ('CN1C(C(=O)Nc2ccc(F)c(Cl)c2)CC(c2ccc(OCC(=O)O)cc2)NS1(=O)=O (racemic)', 'EC50', '> 5 µM'),
  ('CN1C(C(=O)Nc2ccc(F)c(Cl)c2)CC(c2ccc(O)cc2)NS1(=O)=O (stereo not shown)', 'EC50', '< 1 µM');

// EC50 value for "O=C(Nc1ccc(F)c(Cl)c1)[C@@H]1C[C@H](c2nccs2)NS(=O)(=O)N1CCCN1CCCC1" : > 5 µM
